molecular target: recombinant ALK5 kinase domain (Homo sapiens); construct: purified recombinant ALK1-6 kinase domains; assay: LANCE Ultra TR-FRET kinase assay, ALK5; conditions: 10 nM kinase, 50 μM peptide substrate, 10 μM ATP
Sequence (P36897 205-495 limits assumed): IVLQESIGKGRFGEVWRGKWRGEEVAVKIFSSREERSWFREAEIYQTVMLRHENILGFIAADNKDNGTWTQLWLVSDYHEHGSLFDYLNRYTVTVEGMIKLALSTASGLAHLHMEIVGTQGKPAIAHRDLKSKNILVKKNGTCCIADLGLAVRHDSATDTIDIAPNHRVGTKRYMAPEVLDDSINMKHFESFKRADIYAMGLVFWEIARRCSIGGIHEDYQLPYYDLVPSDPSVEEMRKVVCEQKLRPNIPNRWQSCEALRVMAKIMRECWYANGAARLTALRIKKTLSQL
endpointLabel: pIC50
// scale note: pIC50 = -log10(conc_M); give the bare number

// assay recombinant ALK5 kinase domain (Homo sapiens), entry CN1CCN(CCOc2cc(OC3CCOCC3)c3c(Nc4c(Cl)ccc5c4OCO5)ncnc3c2)CC1 [saracatinib] , pIC50 value = 5.16

* * *

target: recombinant ALK4 kinase domain (Homo sapiens); construct: purified recombinant ALK1-6 kinase domains; assay: LANCE Ultra TR-FRET kinase assay, ALK4; conditions: 10 nM kinase, 50 μM peptide substrate, 10 μM ATP
Sequence (P36896 207-497 limits assumed): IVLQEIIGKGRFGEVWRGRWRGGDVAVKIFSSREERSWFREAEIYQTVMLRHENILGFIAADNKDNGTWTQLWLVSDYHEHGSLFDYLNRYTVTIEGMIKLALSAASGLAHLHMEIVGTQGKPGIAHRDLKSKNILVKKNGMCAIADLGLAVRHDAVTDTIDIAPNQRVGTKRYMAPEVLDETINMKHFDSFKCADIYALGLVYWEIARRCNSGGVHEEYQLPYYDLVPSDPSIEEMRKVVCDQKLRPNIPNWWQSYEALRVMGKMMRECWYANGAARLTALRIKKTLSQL
endpointLabel: IC50 (µM)
Report the figure in µM without appending any unit label.

The molecule identified as CN1CCN(CCOc2cc(OC3CCOCC3)c3c(Nc4c(Cl)ccc5c4OCO5)ncnc3c2)CC1 registered its IC50 at 3.9

The measured values listed here are drawn from paper PMC8119212.
